Where do these numbers come from? They come from patent US20240317890A1.

- STUDY_SYSTEM: T1, recombinant human Her2/ErbB2 Fc Tag (ACROBiosystems) (human, UniProt P04626 23-652)
- T1 construct: Bought product; Captured on protein A biosensors; also called HER2-Fc; not shown: Fc tag of the bought product
- EXPERIMENTAL_PROTOCOL: BLI (Octet-HTX), HER2-Fc captured on protein A biosensors, sdAb in solution, 37 C
Below is a list of entries, each paired with its recorded kon value.
// note: answer is a bare numeric in M⁻¹ s⁻¹

# count of solved cases: 3
anti-HER2 humanized synthetic single domain antibody sdAb no 5 (VHH, Purified sdAb in BLI; also called sdAb 5; hsdAb 5) VHH: EVQLQASGGGFVQPGGSLRLSCAASGYTFSEETMGWFRQAPGKEREFVSAISWNHTFFEYYADSVKGRFTISRDNSKNTVYLQMNSLRAEDTATYYCAVTPLPPNKAYWGQGTQVTVSS :: 44000
anti-HER2 humanized synthetic single domain antibody sdAb no 2 (VHH, Purified sdAb in BLI; also called sdAb 2; hsdAb 2) VHH: EVQLQASGGGFVQPGGSLRLSCAASGDSYNESSMGWFRQAPGKEREFVSAISARGNHPLYYADSVKGRFTISRDNSKNTVYLQMNSLRAEDTATYYCASMPMPKWKKYWGQGTQVTVSS :: 1.2e+06
anti-HER2 humanized synthetic single domain antibody sdAb no 1 (VHH, Purified sdAb in BLI; also called sdAb 1; hsdAb1) VHH: EVQLQASGGGFVQPGGSLRLSCAASGATSNISNMGWFRQAPGKEREFVSAISRAESRPLYYADSVKGRFTISRDNSKNTVYLQMNSLRAEDTATYYCAYMPLVRHKAYWGQGTQVTVSS :: 880000

Form field kon, entry anti-HER2 humanized synthetic single domain antibody sdAb no 4 (VHH, Purified sdAb in BLI; Any tag is not described for this assay; also called sdAb 4) VHH: EVQLQASGGGFVQPGGSLRLSCAASGYTSRESGMGWFRQAPGKEREFVSAISRDQDGISYYADSVKGRFTISRDNSKNTVYLQMNSLRAEDTATYYCAMIPLTRNAKYWGQGTQVTVSS : 1.47e+06

Form field kon, entry anti-HER2 humanized synthetic single domain antibody sdAb no 6 (VHH, Purified sdAb in BLI; Any tag is not described for this assay; also called sdAb 6) VHH: EVQLQASGGGFVQPGGSLRLSCAASGRGYTGTTMGWFRQAPGKEREFVSAISWTSNQTSYYADSVKGRFTISRDNSKNTVYLQMNSLRAEDTATYYCAMMPLPRWKGYWGQGTQVTVSS : 780000
